biological target: Indoleamine 2,3-dioxygenase 1 (Homo sapiens, UniProt P14902)
Sequence (P14902 whole entry): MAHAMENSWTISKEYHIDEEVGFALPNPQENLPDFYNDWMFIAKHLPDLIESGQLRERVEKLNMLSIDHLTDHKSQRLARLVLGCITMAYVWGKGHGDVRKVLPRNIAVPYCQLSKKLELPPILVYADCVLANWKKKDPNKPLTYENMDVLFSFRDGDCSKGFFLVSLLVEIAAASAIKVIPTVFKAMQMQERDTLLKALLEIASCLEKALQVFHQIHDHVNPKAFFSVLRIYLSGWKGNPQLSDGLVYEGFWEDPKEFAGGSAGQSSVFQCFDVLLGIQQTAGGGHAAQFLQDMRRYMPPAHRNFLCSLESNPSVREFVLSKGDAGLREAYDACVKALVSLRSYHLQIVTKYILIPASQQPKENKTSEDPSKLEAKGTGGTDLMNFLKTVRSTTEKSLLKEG
REPORTED_PROPERTY: log10(IC50) (log10 of the value in µM)
The common logarithm of IC50 in µM is what is listed.

Query: Dear colleague, I am looking for the recorded log10(IC50) of the following compound: `O=C(NCc1cnc2scc(-c3ccc(Br)cc3)n12)Nc1ccc2c(c1)OCO2`
Response: -0.92

Query: Dear colleague, I am looking for the recorded log10(IC50) of the following compound: `COc1ccc(NC(=O)NCc2cnc3scc(-c4ccc(Br)cc4)n23)cc1`
Response: -0.72

Query: Dear colleague, I am looking for the recorded log10(IC50) of the following compound: `CCOC(=O)c1cnc2scc(-c3ccc(CC)cc3)n12`
Response: 1.38

Query: Dear colleague, I am looking for the recorded log10(IC50) of the following compound: `CCOC(=O)c1cnc2scc(-c3ccc(OC)cc3)n12`
Response: 1.75

Query: Dear colleague, I am looking for the recorded log10(IC50) of the following compound: `O=C(NCc1cnc2scc(-c3ccc(Br)cc3)n12)NC1CCCCC1`
Response: 0.26

Query: Dear colleague, I am looking for the recorded log10(IC50) of the following compound: `CCOC(=O)c1cnc2scc(-c3ccc(Br)cc3)n12`
Response: 0.74

Query: Dear colleague, I am looking for the recorded log10(IC50) of the following compound: `Cc1ccc(-c2csc3ncc(C(=O)NCCc4cccc(Cl)c4)n23)cc1`
Response: 0.28
